- EXPERIMENTAL SYSTEM: T1, human ACTH 1-39 (human)
- T1 peptide: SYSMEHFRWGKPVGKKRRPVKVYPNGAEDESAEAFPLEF
- EXPERIMENT SUMMARY: cell-based or functional assay
MEASURED ENDPOINT: Y1 Cells IC50 (nM)
One number for each entry, in nM.

BINDER	UNIT LABEL	Y1 Cells IC50
Ab5 (antibody, human IgG1, kappa, N297A, V domains shown, rabbit/human chimeric antibody, made in HEK-293) VH: QSVEESGGRLVTPGTPLTLTCTVSGFSLSSYAMSWVRQAPGEGLEWIGIISDSGSTYYASWAKGRFTISKTSTTVDLKITSPTTEDTATYFCAREPEYGYDDYGDWVSDLWGQGTLVTVSS VL: DIVMTQTPASVSEPVGGTVTIKCQASQSISSYLSWYQQKPGQPPKLLIYRASTLASGVPSRFKGSGSGTQFTLTISDLECADAATYYCQSYYYSSSITYRNAFGGGTEVVVKR	nM	3.49
Ab12 (antibody, human IgG1, kappa, N297A, V domains shown, rabbit/human chimeric antibody, made in HEK-293) VH: QSVEESGGRLVTPGTPLTLTCTVSGSSLSDYDMIWVRQAPGKGLESIGIIYDDGDTYYATWAKGRFTISKTSTTVDLRIISPTTEDTATYFCVKGVSNMWGPGTLVTVSS VL: DVVMTQTPSSVSAAVGGTVTIKCQASQSIGSSLAWYQQKPGQRPKLLIYAASTLASGVPSRFKGSGSGTEFTLTISDLECADAATYYCQSYDGSSSSSYGVGFGGGTEVVVKR	nM	2.68
Ab10 (antibody, human IgG1, kappa, N297A, V domains shown, rabbit/human chimeric antibody, made in HEK-293) VH: QSVEESGGRLVTPGTPLTLTCTVSGFSLSSADMIWVRQAPGKGLESIGMIYDDGDTYYATWAKGRFTISKTSTTVDLKIISPTTEDTATYFCVKGVSSVWGQGTLVTVSS VL: DVVMTQTPASVEAAVGGTVTINCQASENIYRSLAWYQQKPGQPPKLLIYSASTLASGVPSRFKGSGSGTEFTLTISDLECADAATYYCQSYDGSSSSSYGVGFGGGTEVVVKR	nM	5.98

Consider the additional binder presented here.
Query string: Specify measured Y1 Cells IC50 for Ab3 (antibody, human IgG1, kappa, N297A, V domains shown, rabbit/human chimeric antibody, made in HEK-293) VH: QSLEESGGRLVTPGTPLTLTCTVSGSSLSNFDMIWVRQAPGKGLESIGIIYDFGSTYYASWAKGRFTISRTSSTTVDLKIISPTIEDTATYFCVKGVSNIWGQGTLVTVSS VL: DVVMTQTPASVEAAVGGTVTIKCQASEDISSNLAWYQQKLGQPPKLLIYSASTLASGVPSRFKGSGSGTEFTLAISDLECADAATYYCQSYDGSSSSSYGIGFGGGTEVVVKR .
Result string: 7.72

Recorded values, source patent US20230174641A1.
